- EXPERIMENTAL_TARGET: Tie2 receptor tyrosine kinase (Homo sapiens, UniProt Q02763)
- Construct: consist of only the intracellular portion C-terminal portion of the respective receptor, within which is found the kinase domain
- Sequence (Q02763 770-1124 limits assumed): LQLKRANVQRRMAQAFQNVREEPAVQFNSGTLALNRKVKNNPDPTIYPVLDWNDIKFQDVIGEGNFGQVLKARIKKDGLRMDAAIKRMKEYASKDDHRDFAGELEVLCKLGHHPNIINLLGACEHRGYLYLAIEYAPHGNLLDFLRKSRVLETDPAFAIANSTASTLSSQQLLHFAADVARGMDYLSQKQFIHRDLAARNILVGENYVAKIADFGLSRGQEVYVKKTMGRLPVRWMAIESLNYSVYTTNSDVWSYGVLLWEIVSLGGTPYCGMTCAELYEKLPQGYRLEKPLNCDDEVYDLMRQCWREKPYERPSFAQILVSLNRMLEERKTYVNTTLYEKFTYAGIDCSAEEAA
- METHOD_SUMMARY: In vitro receptor tyrosine kinase inhibition assay (ELISA based, Test (a))
- EXPERIMENTAL_SETUP: recombinant human Tie2 kinase domain lysate, synthetic peptide substrate
pIC50: −log10 of the molar value.
MEASUREMENT_KIND: pIC50

{"columns": ["SMILES_RECORD", "MEASUREMENT_KIND", "RESULT_VALUE"],
 "data": [
  ["Cc1cc(NC(=O)Nc2cccc(C#Cc3c(N)ncnc3N)c2)on1", "pIC50", 5.67]
]}

a. Cc1cc(NC(=O)Nc2ccc(C#Cc3c(N)ncnc3N)cc2)sn1
b. CC(C)(C)c1nnc(NC(=O)Nc2ccc(C#Cc3c(N)ncnc3N)cc2)s1
Req: Given the two records a and b , choose the one whose pIC50 value is lower. I would appreciate it if you answered with the label of your choice.
Resp: a
(a: 5.55, b: 6.06)
